Test system: U-251
ASSAY NOTES: NCI tumour cell line growth inhibition, 48 h
The source made the active and inactive calls. Rule as the data show it: active = GI50 up to about 1.1 µM and inactive = higher.
Reported GI50 values for a set of compounds

> print(dat)
                                    compound  value.type               result
 1                     C=CCNc1nc2c(N)ncnc2s1        GI50   > 10 µM (inactive)
 2              O=c1[nH]nc(Cc2ccc(Cl)cc2)n1O        GI50  > 100 µM (inactive)
 3  O=C(c1ccccc1)c1ccc(N2C(=O)/C(=C/c3ccccc3S)N=C2c2ccccc2)c(N2C(=O)/C(=C/c3ccccc3S)N=C2c2ccccc2)c1        GI50   25.2 µM (inactive)
 4  COc1cc(/C=C/C(=O)c2cccc3ccccc23)cc(OC)c1OC        GI50   6.41 µM (inactive)
 5              CN(CC(=O)O)Cc1c[nH]c2ccccc12        GI50  > 100 µM (inactive)
 6  C=C(C)[C@H]1CC[C@@]2(C)C(C1)[C@H](C)CC[C@@H]2O (some centres undefined)        GI50  > 100 µM (inactive)
 7         CC1=NN(c2nc(N)nc(CBr)n2)C(C)(C)C1        GI50   6.76 µM (inactive)
 8  Nc1cc(C(=O)NC2C3CC4CC(C3)CC2C4)nc(S)n1 (centres undefined)        GI50  > 100 µM (inactive)
 9  C=C[C@@]1(C)CC2CC[C@]3(C)C(C)=CC(=O)CC3[C@]2(C)CC1O (some centres undefined)        GI50  > 100 µM (inactive)
10  N#CC1(C#N)C(c2ccc(C3C(C#N)(C#N)C3(C#N)C#N)cc2)C1(C#N)C#N        GI50  > 100 µM (inactive)

GI50 recorded for this compound, `Cc1n[nH]c(=O)n1C1CCCC1` , is > 100 µM (inactive)

GI50 recorded for this compound, `CCOC(=O)c1cc(C2=CCNC2=O)c(-c2cc(C)no2)[nH]1` , is 62.5 µM (inactive)

GI50 recorded for this compound, CC(C)C(NCc1c2ccccc2nc2ccccc12)C(=O)O (centres undefined) , is 91.8 µM (inactive)

GI50 recorded for this compound, `COc1ccc(CNc2cnc3cc(N)ccc3n2)cc1` , is > 100 µM (inactive)

GI50 recorded for this compound, `CNC(=O)CN1CC(=O)N(C)C(=O)C1` , is > 100 µM (inactive)

GI50 recorded for this compound, `COc1cc(/C=C\c2ccc(O)cc2)cc(OC)c1OC` , is 3.01 µM (inactive)

GI50 recorded for this compound, `O=C(CBr)c1ccc2cc(Br)c3ccccc3c2c1` , is 46.3 µM (inactive)

GI50 recorded for this compound, `COc1ccc(-c2c(C3=NCCCN3)nnn2-c2ccc([N+](=O)[O-])cc2)cc1` , is > 100 µM (inactive)

GI50 recorded for this compound, `CCOC(=O)c1cnc2sc3ccc4ccccc4c3n2c1=O` , is 94 µM (inactive)

Provenance of the data: ChEMBL document CHEMBL1201862
